target: human DGAT2 (Homo sapiens (Human), UniProt Q96PD7); assay: Measurement of inhibitory effect against DGAT2 enzyme activity (SPA, Phospholipid FlashPlate, [14C]-TG production); conditions: recombinant human DGAT2 membrane protein from Sf-21 cells; inhibition of [14C]-TG production; 37° C.
Sequence (Q96PD7 whole entry): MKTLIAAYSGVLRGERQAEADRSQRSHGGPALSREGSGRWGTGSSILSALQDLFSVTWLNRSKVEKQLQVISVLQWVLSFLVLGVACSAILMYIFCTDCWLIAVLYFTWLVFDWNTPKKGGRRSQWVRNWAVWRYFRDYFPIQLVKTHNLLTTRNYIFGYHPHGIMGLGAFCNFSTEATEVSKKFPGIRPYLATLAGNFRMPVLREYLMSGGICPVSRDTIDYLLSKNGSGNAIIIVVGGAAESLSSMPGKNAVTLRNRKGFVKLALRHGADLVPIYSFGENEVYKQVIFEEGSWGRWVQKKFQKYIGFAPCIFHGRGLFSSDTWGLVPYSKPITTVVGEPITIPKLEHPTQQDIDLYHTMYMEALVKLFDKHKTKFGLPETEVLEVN
Measurement name: pIC50
Reminder that pIC50 means the negative base-10 logarithm of the concentration expressed in mol/L.

Worked examples follow.
- Compound: "CCOc1ccccc1Oc1cccc(-c2cncc(Nc3nccc(O[C@H]4CC[C@H](C(=O)O)CC4)n3)n2)c1"
  Measurement name: "pIC50"
  Quantitative result: 5.92
- Compound: "CCOc1ccccc1Oc1cccc(-c2cncc(NC(=O)Cc3ccc(CC(C)(C)C(=O)O)cc3)n2)n1"
  Measurement name: "pIC50"
  Quantitative result: 7.21
- Compound: "CCOc1ccccc1Oc1cccc(-c2cncc(Nc3nccc(-c4ccc(CC(=O)O)cc4)n3)n2)c1"
  Measurement name: "pIC50"
  Quantitative result: 5.41
- Compound: "CCOc1ccccc1Oc1cccc(-c2cncc(NC(=O)CCc3ccc(OC(C)(C)C(=O)O)cc3)n2)c1"
  Measurement name: "pIC50"
  Quantitative result: 6.48
- Compound: "CCOc1ccccc1Oc1cncc(-c2cncc(NC(=O)Cc3ccc(CC(=O)O)cc3)n2)c1"
  Measurement name: "pIC50"
  Quantitative result: 5.47

// "CCOc1cccnc1Oc1cccc(-c2cncc(NC(=O)CCc3ccc(C(C)(C)C(=O)O)cc3)n2)c1" : pIC50 value = 7.68

Value of pIC50 reported for the compound "CCOc1cccnc1Oc1cccc(-c2cncc(NC(=O)Cc3ccc(CC(C)(C)C(=O)O)cc3)n2)c1" is 8.13

The compound "CCOc1ccccc1Oc1cncc(-c2cncc(NC(=O)Cc3ccc(CC(C)(C)C(=O)O)cc3)n2)c1" showed pIC50 equal to 7.44

get_value(item= "CCOc1cccnc1Oc1cccc(-c2cncc(NC(=O)CCc3ccc(OC(C)(C)C(=O)O)cc3)n2)c1" , readout=pIC50) returns 6.68

Lab note: "CCOc1cccnc1Oc1cccc(-c2cncc(Nc3nccc(N4CCC[C@@H](C(=O)O)C4)n3)n2)c1" gave pIC50 of 5.04

Record summary for "CCOc1ccccc1Oc1cccc(-c2cncc(Nc3nccc(N4CCC[C@@H](C(=O)O)C4)n3)n2)n1" : reported pIC50 = 5.13

What the record says about "CCOc1ccccc1Oc1cccc(-c2cncc(Nc3cccc(-c4cccc(CC(C)(C)C(=O)O)c4)n3)n2)n1" : pIC50 is 6.35

// sample "CCOc1cccnc1Oc1cccc(-c2cncc(NC(=O)C(C)(C)c3ccc(CC(C)(C)C(=O)O)cc3)n2)c1" , its pIC50 was 8.17

* * *

The entries below come with measured pIC50 values attached.
biological target: human DGAT2 (Homo sapiens (Human)); assay: Measurement of inhibitory effect against DGAT2 enzyme activity (SPA, Phospholipid FlashPlate, [14C]-TG production); conditions: recombinant human DGAT2 membrane protein from Sf-21 cells; inhibition of [14C]-TG production; 37° C.
By convention, pIC50 is the negative base-10 log of a molar concentration.

Observe how each entry below is paired with its result.
- Compound: "CCOc1ccccc1Oc1cccc(-c2cncc(NC(=O)C(C)(C)c3ccc(CC(C)(C)C(=O)O)cc3)n2)c1"
  pIC50: 7.66
- Compound: "CCOc1ccccc1Oc1cncc(-c2cncc(NC(=O)CCc3ccc(C(C)(C)C(=O)OC)cc3)n2)c1"
  pIC50: 7.96

Log: human DGAT2 (Homo sapiens (Human)), compound "CCOc1cccnc1Oc1cccc(-c2cncc(Nc3nccc(O[C@H]4CC[C@H](C(=O)O)CC4)n3)n2)c1" , pIC50 = 5.47

Value sought: pIC50, system human DGAT2 (Homo sapiens (Human)), item "CCOc1ccccc1Oc1cncc(-c2cncc(Nc3cccc(-c4cccc(CC(C)(C)C(=O)O)c4)n3)n2)c1" . Result: 6.80
